Items are presented alongside their recorded IC50.
Target: Chitinase (Hypocrea rufa, UniProt D2K848)
Sequence (D2K848 whole entry): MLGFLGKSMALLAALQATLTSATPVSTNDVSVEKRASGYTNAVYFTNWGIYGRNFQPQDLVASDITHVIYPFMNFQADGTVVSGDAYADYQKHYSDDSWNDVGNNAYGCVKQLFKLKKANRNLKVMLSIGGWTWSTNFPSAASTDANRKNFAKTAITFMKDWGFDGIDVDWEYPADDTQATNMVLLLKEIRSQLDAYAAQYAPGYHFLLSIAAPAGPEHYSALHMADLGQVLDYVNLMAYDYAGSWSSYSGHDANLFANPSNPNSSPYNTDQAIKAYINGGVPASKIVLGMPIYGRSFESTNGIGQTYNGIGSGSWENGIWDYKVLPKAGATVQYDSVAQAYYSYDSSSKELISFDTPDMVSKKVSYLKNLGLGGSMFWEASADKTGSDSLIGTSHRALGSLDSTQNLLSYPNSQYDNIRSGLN

# chemical.structure, IC50 / µM
data = [
    ("C#CCNC(=N)NCCCCCCN1CCCCCCCCNC(=N)NC1=O", 97),
    ("N=C(NCCCCCCCCN1CCCCCCCCNC(=N)NC1=O)NCC1CC1", 130),
    ("C/C=C/CNC(=N)NCCCCCCN1CCCCCCCCNC(=N)NC1=O", 111),
    ("CCNC(=N)NCCCCCCN1CCCCCCCCNC(=N)NC1=O", 140),
    ("C=C(C)CNC(=N)NCCCCCCN1CCCCCCCCNC(=N)NC1=O", 108),
]
